Source: ChEMBL document CHEMBL1140996

I'd be grateful if you could share measured inhibition zone (IZ) for these entries.
- Test system: Escherichia coli
- protocol-details: Antibacterial activity against Escherichia coli at 10 to 100 ug/mL after 18 hrs by halo zone test
- Format: functional
Numbers only, in mm.

| smiles-record | tested-system | inhibition zone (IZ) (mm) |
| --- | --- | --- |
| CC(=O)O[C@H]1CC[C@@]2(C)C(=C/C(=N\NC(=S)NC3CCCCC3)[C@H]3[C@@H]4CC[C@H]([C@H](C)CCCC(C)C)[C@@]4(C)CC[C@@H]32)C1 | Escherichia coli | 13.2 |
| CC(C)CCC[C@@H](C)[C@H]1CC[C@H]2[C@@H]3/C(=N/NC(=S)NC4CCCCC4)C=C4C[C@@H](Cl)CC[C@]4(C)[C@H]3CC[C@]12C | Escherichia coli | 11.8 |
| CC(C)CCC[C@@H](C)[C@H]1CC[C@H]2[C@@H]3/C(=N/NC(=S)NC4CCCCC4)C=C4CCCC[C@]4(C)[C@H]3CC[C@]12C | Escherichia coli | 7.8 |
| CC(=O)O[C@H]1CC[C@@]2(C)C(=C/C(=N\NC(=S)NC3CCCCCCC3)[C@H]3[C@@H]4CC[C@H]([C@H](C)CCCC(C)C)[C@@]4(C)CC[C@@H]32)C1 | Escherichia coli | 13.8 |

I need inhibition zone (IZ) for every entry listed below, if you could help.
1. CC(C)CCC[C@@H](C)[C@H]1CC[C@H]2[C@@H]3/C(=N/NC(=S)NC4CCCCCCC4)C=C4C[C@@H](Cl)CC[C@]4(C)[C@H]3CC[C@]12C
2. CC1(C)S[C@@H]2[C@H](NC(=O)[C@H](N)c3ccc(O)cc3)C(=O)N2[C@H]1C(=O)O
3. CC(C)CCC[C@@H](C)[C@H]1CC[C@H]2[C@@H]3/C(=N/NC(=S)NC4CCCC4)C=C4CCCC[C@]4(C)[C@H]3CC[C@]12C
4. CC(C)CCC[C@@H](C)[C@H]1CC[C@H]2[C@@H]3/C(=N/NC(=S)NC4CCCC4)C=C4C[C@@H](Cl)CC[C@]4(C)[C@H]3CC[C@]12C
5. CC(C)CCC[C@@H](C)[C@H]1CC[C@H]2[C@@H]3/C(=N/NC(=S)NC4CCCCCCC4)C=C4CCCC[C@]4(C)[C@H]3CC[C@]12C
6. CC(=O)O[C@H]1CC[C@@]2(C)C(=C/C(=N\NC(=S)NC3CCCC3)[C@H]3[C@@H]4CC[C@H]([C@H](C)CCCC(C)C)[C@@]4(C)CC[C@@H]32)C1

Response:
1: 12.4; 2: 20; 3: 9.4; 4: 15.6; 5: 10; 6: 12.4

---

Assignment: determine reported MIC for the given molecules.
- Tested on: Salmonella typhimurium
- protocol-details: Antibacterial activity against Salmonella Typhimurium after 18 hrs by macro dilution test
- Format: functional, Salmonella enterica subsp. enterica serovar Typhimurium
- condition-context: Salmonella enterica

Below, each entry is followed by its recorded MIC result.
| smiles-record | tested-system | result |
| --- | --- | --- |
| CC(C)CCC[C@@H](C)[C@H]1CC[C@H]2[C@@H]3/C(=N/NC(=S)NC4CCCC4)C=C4C[C@@H](Cl)CC[C@]4(C)[C@H]3CC[C@]12C | Salmonella typhimurium | 128 µg/mL |
| CC(=O)O[C@H]1CC[C@@]2(C)C(=C/C(=N\NC(=S)NC3CCCCC3)[C@H]3[C@@H]4CC[C@H]([C@H](C)CCCC(C)C)[C@@]4(C)CC[C@@H]32)C1 | Salmonella typhimurium | 64 µg/mL |
| CC1(C)S[C@@H]2[C@H](NC(=O)[C@H](N)c3ccc(O)cc3)C(=O)N2[C@H]1C(=O)O | Salmonella typhimurium | 32 µg/mL |
| CC(C)CCC[C@@H](C)[C@H]1CC[C@H]2[C@@H]3/C(=N/NC(=S)NC4CCCCC4)C=C4C[C@@H](Cl)CC[C@]4(C)[C@H]3CC[C@]12C | Salmonella typhimurium | 128 µg/mL |
| CC(C)CCC[C@@H](C)[C@H]1CC[C@H]2[C@@H]3/C(=N/NC(=S)NC4CCCC4)C=C4CCCC[C@]4(C)[C@H]3CC[C@]12C | Salmonella typhimurium | 128 µg/mL |

Batch lookup, MIC per entry.
1. CC(C)CCC[C@@H](C)[C@H]1CC[C@H]2[C@@H]3/C(=N/NC(=S)NC4CCCCC4)C=C4CCCC[C@]4(C)[C@H]3CC[C@]12C
2. CC(=O)O[C@H]1CC[C@@]2(C)C(=C/C(=N\NC(=S)NC3CCCC3)[C@H]3[C@@H]4CC[C@H]([C@H](C)CCCC(C)C)[C@@]4(C)CC[C@@H]32)C1
3. CC(=O)O[C@H]1CC[C@@]2(C)C(=C/C(=N\NC(=S)NC3CCCCCCC3)[C@H]3[C@@H]4CC[C@H]([C@H](C)CCCC(C)C)[C@@]4(C)CC[C@@H]32)C1
4. CC(C)CCC[C@@H](C)[C@H]1CC[C@H]2[C@@H]3/C(=N/NC(=S)NC4CCCCCCC4)C=C4C[C@@H](Cl)CC[C@]4(C)[C@H]3CC[C@]12C
5. CC(C)CCC[C@@H](C)[C@H]1CC[C@H]2[C@@H]3/C(=N/NC(=S)NC4CCCCCCC4)C=C4CCCC[C@]4(C)[C@H]3CC[C@]12C

Response:
["256 µg/mL", "64 µg/mL", "128 µg/mL", "128 µg/mL", "128 µg/mL"]
